target: MC3-R (HEK-293 cells expressing MC3-R) (Homo sapiens, UniProt P41968); construct: expressed in transfected cells; host or cells: HEK-293; test: Ki determination by the method of Example 4, MC3-R; assay type: cell-based
Sequence (P41968 whole entry): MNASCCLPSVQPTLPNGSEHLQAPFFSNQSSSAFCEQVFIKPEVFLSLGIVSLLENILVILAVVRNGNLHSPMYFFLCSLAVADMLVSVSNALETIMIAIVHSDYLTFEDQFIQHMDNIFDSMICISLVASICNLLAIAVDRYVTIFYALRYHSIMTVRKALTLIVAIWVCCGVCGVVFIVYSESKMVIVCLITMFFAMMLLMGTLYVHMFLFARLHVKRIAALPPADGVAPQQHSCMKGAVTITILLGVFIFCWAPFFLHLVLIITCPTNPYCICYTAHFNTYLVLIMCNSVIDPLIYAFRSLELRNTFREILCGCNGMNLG
# note: boundary value 200 nM maps to 0 (no); Ki below it maps to 1 (yes)

{"compound": "N=C(N)NCCCC1C(=O)N2C(COc3ccc4ccccc4c3)CCC2N1CC(N)Cc1ccc(Cl)cc1Cl (centres unmarked) [Compound O]", "target-desc": "MC3-R (HEK-293 cells expressing MC3-R) (Homo sapiens, UniProt P41968)", "group-label": "0 (no)"}
{"compound": "CCCCCCC(=O)NC(COCc1ccccc1)C(=O)NC(Cc1ccc(Cl)cc1)C(=O)N1C(CCCCN)C(=O)N2C(COc3ccc4ccccc4c3)CCC21 (centres unmarked) [Example 12]", "target-desc": "MC3-R (HEK-293 cells expressing MC3-R) (Homo sapiens, UniProt P41968)", "group-label": "1 (yes)"}
{"compound": "N=C(N)NCCCC1C(=O)N2C(Cc3ccc4ccccc4c3)CCC2N1C(=O)C(N)Cc1ccc(Cl)cc1Cl (centres unmarked) [Compound G]", "target-desc": "MC3-R (HEK-293 cells expressing MC3-R) (Homo sapiens, UniProt P41968)", "group-label": "1 (yes)"}
{"compound": "N=C(N)NCCCC1C(=O)N2C(COc3ccc4ccccc4c3)CCC2N1C(=O)C(Cc1ccccc1Cl)NC(=O)C1Cc2ccccc2CN1 (centres unmarked) [Example 29]", "target-desc": "MC3-R (HEK-293 cells expressing MC3-R) (Homo sapiens, UniProt P41968)", "group-label": "0 (no)"}
{"compound": "N=C(N)NCCCC1C(=O)N2C(COc3ccc4ccccc4c3)CCC2N1C(=O)C(Cc1ccccc1Cl)NC(=O)C(N)COCc1ccccc1 (centres unmarked) [Example 30]", "target-desc": "MC3-R (HEK-293 cells expressing MC3-R) (Homo sapiens, UniProt P41968)", "group-label": "0 (no)"}
{"compound": "N=C(N)NCCCC1C(=O)N2C(COc3ccc4ccccc4c3)CCC2N1C(=O)C(N)Cc1ccc(Cl)cc1Cl (centres unmarked) [Compound B]", "target-desc": "MC3-R (HEK-293 cells expressing MC3-R) (Homo sapiens, UniProt P41968)", "group-label": "1 (yes)"}
{"compound": "N=C(N)NCCCC1C(=O)N2C(COc3ccc4ccccc4c3)CCC2N1C(=O)C(Cc1ccc(Cl)cc1Cl)NC(=O)C1CCC(c2ccccc2)N1 (centres unmarked) [Example 46]", "target-desc": "MC3-R (HEK-293 cells expressing MC3-R) (Homo sapiens, UniProt P41968)", "group-label": "0 (no)"}
{"compound": "NCCCCC1C(=O)N2C(COc3ccc4ccccc4c3)CCC2N1C(=O)C(Cc1ccc(Cl)cc1)NC(=O)C1Cc2ccccc2CN1 (centres unmarked) [Example 11]", "target-desc": "MC3-R (HEK-293 cells expressing MC3-R) (Homo sapiens, UniProt P41968)", "group-label": "0 (no)"}
